Ref: patent US9169254B2

Target: human PTH1 receptor (Homo sapiens)
Sequence (Q03431 27-593): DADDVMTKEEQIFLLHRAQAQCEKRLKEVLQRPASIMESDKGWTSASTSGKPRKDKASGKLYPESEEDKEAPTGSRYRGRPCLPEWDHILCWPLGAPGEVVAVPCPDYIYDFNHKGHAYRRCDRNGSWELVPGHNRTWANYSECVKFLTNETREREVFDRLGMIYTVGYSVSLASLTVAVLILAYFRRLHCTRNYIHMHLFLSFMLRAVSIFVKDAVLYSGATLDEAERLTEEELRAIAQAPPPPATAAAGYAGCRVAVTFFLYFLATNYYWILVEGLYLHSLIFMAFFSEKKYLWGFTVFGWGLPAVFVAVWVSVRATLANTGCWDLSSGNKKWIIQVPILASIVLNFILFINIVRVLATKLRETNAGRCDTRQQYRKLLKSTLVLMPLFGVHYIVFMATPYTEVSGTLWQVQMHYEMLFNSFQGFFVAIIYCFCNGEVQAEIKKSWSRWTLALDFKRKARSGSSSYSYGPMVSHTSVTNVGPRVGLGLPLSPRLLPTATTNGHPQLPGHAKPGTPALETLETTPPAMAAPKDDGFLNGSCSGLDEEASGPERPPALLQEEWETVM
Assay: In vitro cAMP signal activity in HKRK-B7 cells (LLC-PK1 cells overexpressing the human PTH1 receptor)
Format: cell-based
Details: HKRK-B7 cells; compound at 1×10^−3 M; cAMP produced as percentage of that produced by hPTH(1-34) at 100 nM
Classify as follows. Reported cAMP production activity (%) greater than or equal to 60%: Met. Reported cAMP production activity (%) below: Not met.

Compound: Cc1cc(C(=O)N2CCC(O)(CF)CC2)cc(C)c1/C=C/S(=O)(=O)N1CCC2(CC1)N=C(c1ccc(F)c(C(F)(F)F)c1)NC2=O [Compound 641]
Answer Label: Met
--
Compound: Cc1cc(N(C)C(N)=O)cc(C)c1CCS(=O)(=O)N1CCC2(CC1)N=C(C1CCC3(CC1)CC3)NC2=O [Compound 1058]
Answer Label: Met
--
Compound: Cc1cc(N(C)C(N)=O)cc(C)c1CCS(=O)(=O)N1CCC2(CC1)N=C(CCCCCCCCCC(N)=O)NC2=O [Compound 1363]
Answer Label: Met
--
Compound: Cc1cc(C(=O)N2CCN(CCCO)CC2)ccc1CCS(=O)(=O)N1CCC2(CC1)N=C(c1cccc(C(F)(F)F)c1)NC2=O [Compound 366]
Answer Label: Met
--
Compound: Cc1cc(C(=O)N2CCC(O)(CF)CC2)cc(C)c1/C=C/S(=O)(=O)N1CCC2(CC1)N=C(c1ccc3cc[nH]c3c1)NC2=O [Compound 1268]
Answer Label: Not met
--
Compound: O=C1NC(C2CCCCC2)=NC12CCN(S(=O)(=O)/C=C/c1cccc3c1ccn3CCCCO)CC2 [Compound 478]
Answer Label: Not met
--
Compound: CC(=O)Nc1ccc(CCS(=O)(=O)N2CCC3(CC2)N=C(C24CC5CC(CC(C5)C2)C4)NC3=O)c(C)c1 [Compound 918]
Answer Label: Met
--
Compound: Cc1cc(S(=O)(=O)Nc2cccnc2)ccc1CCS(=O)(=O)N1CCC2(CC1)N=C(c1cccc(C(F)(F)F)c1)NC2=O [Compound 294]
Answer Label: Met
--
Compound: CC(=O)N(CCO)c1ccc(CCS(=O)(=O)N2CCC3(CC2)N=C(c2ccc(F)c(C(F)(F)F)c2)NC3=O)c(C)c1 [Compound 721]
Answer Label: Met
--
Compound: Cc1cc2ccc1CCS(=O)(=O)N1CCC3(CC1)N=C(NC3=O)c1cc(cc(C(F)(F)F)c1)OCCCCCOCCNC2=O [Compound 1427]
Answer Label: Met
--
Compound: Cc1cc(C(=O)N(C)C)ccc1CCS(=O)(=O)N1CCC2(CC1)N=C(c1cc(Cl)cc(C(F)(F)F)c1)NC2=O [Compound 127]
Answer Label: Met
--
Compound: CC[S+]([O-])CCCCCCC1=NC2(CCN(S(=O)(=O)CCc3c(C)cc(N(C)C(N)=O)cc3C)CC2)C(=O)N1 (centres unmarked) [Compound 1317]
Answer Label: Not met
--
Compound: CN(C)C(=O)Cn1ccc2c(/C=C/S(=O)(=O)N3CCC4(CC3)N=C(C3CCCCC3)NC4=O)cccc21 [Compound 193]
Answer Label: Met
--
Compound: Cc1cc(S(=O)(=O)NCC(N)=O)ccc1CCS(=O)(=O)N1CCC2(CC1)N=C(c1cccc(OC(F)(F)F)c1)NC2=O [Compound 675]
Answer Label: Met
--
Compound: Cc1cc(N(CCO)C(=O)C(C)C)ccc1/C=C/S(=O)(=O)N1CCC2(CC1)N=C(c1cccc(OC(F)(F)F)c1)NC2=O [Compound 711]
Answer Label: Met
--
Compound: Cc1cc(N(C)C(N)=O)cc(C)c1CCS(=O)(=O)N1CCC2(CC1)N=C(c1cccc(OCCCC(F)(F)F)c1)NC2=O [Compound 1338]
Answer Label: Met
--
Compound: O=C1NC(C2CCCCC2)=NC12CCN(S(=O)(=O)CCc1cc3cc[nH]c3cc1C(F)(F)F)CC2 [Compound 836]
Answer Label: Not met
--
Compound: Cc1cc(C(=O)N(C)C)ccc1CCS(=O)(=O)N1CCC2(CC1)N=C(N(C)Cc1ccccc1)NC2=O [Compound 1398]
Answer Label: Met
--
Compound: CO[C@H]1CC[C@@H](C2=NC3(CCN(S(=O)(=O)c4cccc(Cl)c4)CC3)C(=O)N2)CC1 [Compound 24]
Answer Label: Not met
--
Compound: Cc1cc(OCCC(O)CO)ccc1CCS(=O)(=O)N1CCC2(CC1)N=C(c1cccc(C(F)(F)F)c1)NC2=O (centres unmarked) [Compound 284]
Answer Label: Met
--
Compound: [2H]C([2H])([2H])C([2H])(Oc1ccc(C2=NC3(CCN(S(=O)(=O)/C=C/c4c(C)cc(C(=O)N5CCC(O)(CF)CC5)cc4C)CC3)C(=O)N2)cc1C(F)(F)F)C([2H])([2H])[2H] [Compound 1262]
Answer Label: Met
--
Compound: Cc1cc(N(C)C(N)=O)cc(C)c1/C=C/S(=O)(=O)N1CCC2(CC1)N=C(CCCCCCCCCF)NC2=O [Compound 1325]
Answer Label: Met
--
Compound: Cc1cc(N2C(=O)CNC2=O)cc(C)c1CCS(=O)(=O)N1CCC2(CC1)N=C(c1cccc(OC(F)(F)F)c1)NC2=O [Compound 799]
Answer Label: Not met
--
Compound: Cc1cc(C(=O)N(C)C)ccc1CCS(=O)(=O)N1CCC2(CC1)N=C(C1CCC(C(C)(C)C)CC1)NC2=O (centres unmarked) [Compound 895]
Answer Label: Met
--
Compound: Cc1cc(/C=C/S(=O)(=O)N2CCC3(CC2)N=C(c2cccc(OC(F)(F)F)c2)NC3=O)cc(C)c1OCCC(O)CO (centres unmarked) [Compound 601]
Answer Label: Met
